Tested on: Androgen Receptor (AR) (Homo sapiens, UniProt P10275, T878A)
Construct: cell based immuno-fluorescence assay using the LNCaP prostate epithelial cell line
Sequence (P10275 whole entry T878A): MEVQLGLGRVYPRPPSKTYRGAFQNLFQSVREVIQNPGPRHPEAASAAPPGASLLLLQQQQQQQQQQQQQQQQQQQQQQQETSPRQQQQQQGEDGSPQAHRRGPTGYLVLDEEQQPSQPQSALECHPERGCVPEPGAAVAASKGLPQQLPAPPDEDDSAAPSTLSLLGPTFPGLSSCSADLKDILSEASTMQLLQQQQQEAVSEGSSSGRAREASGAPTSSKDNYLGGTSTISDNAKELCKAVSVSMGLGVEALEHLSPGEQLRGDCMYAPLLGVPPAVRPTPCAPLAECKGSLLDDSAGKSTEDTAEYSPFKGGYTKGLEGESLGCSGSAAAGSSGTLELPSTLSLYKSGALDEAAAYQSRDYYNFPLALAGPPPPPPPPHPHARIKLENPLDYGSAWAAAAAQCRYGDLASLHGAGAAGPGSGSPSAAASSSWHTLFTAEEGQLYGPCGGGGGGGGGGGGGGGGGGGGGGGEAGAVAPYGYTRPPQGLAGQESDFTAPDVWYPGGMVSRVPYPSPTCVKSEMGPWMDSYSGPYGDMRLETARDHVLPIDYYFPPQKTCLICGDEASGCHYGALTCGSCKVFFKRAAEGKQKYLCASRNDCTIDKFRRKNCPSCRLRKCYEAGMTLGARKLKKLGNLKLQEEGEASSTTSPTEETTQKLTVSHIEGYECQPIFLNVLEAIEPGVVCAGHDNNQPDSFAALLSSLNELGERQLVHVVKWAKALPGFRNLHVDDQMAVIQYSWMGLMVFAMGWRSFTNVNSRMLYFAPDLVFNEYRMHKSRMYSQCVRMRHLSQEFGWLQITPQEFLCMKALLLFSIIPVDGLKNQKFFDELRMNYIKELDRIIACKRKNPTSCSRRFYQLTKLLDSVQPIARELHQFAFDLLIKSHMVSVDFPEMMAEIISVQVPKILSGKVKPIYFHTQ
Assay details: LNCaP Androgen Receptor Down-Regulation Cell Assay
Measurement setup: LNCaP prostate carcinoma cell line; 20-22 hours incubation; immunofluorescence; 50% reduction of the AR signal
Provide the reported IC50 of each item.
Numeric only. Scale: nM

input: Record lookup: for Androgen Receptor (AR) (Homo sapiens, UniProt P10275, T878A), what IC50 belongs to CC(=O)N1CCN(C[C@@H](C)Oc2ccc(C3CCN(c4ccc5nnc(C(F)(F)F)n5n4)CC3)cc2)CC1 ?
output: 160

input: Another compound to look at: CCN1CCN(CCCOc2ccc(C3CCN(c4ccc5nnc(C(F)(F)F)n5n4)CC3)cc2)CC1=O
output: 240

input: Another compound to look at: COCCN1CCN(CCOc2ccc(C3CCN(c4ccc5nnc(C(F)(F)F)n5n4)CC3)cc2)CC1=O
output: 570
